Task for the reader: assign each of the following molecules its reported mass density.
settings: 328.15 K; 2000 kPa; Liquid; Vibrating tube method
Write the answer as a number in kg/m3, unit excluded.

Request: // Input: Cc1ccsc1 . Output its mass density only.
Response: 985.74

Request: // Input: Cc1cccs1 . Output its mass density only.
Response: 983.93

Request: // Input: c1ccsc1 . Output its mass density only.
Response: 1024.49

Request: // Input: Cc1ccc(C)s1 . Output its mass density only.
Response: 951.34

====

conditions: 328.15 K; 5000 kPa; Liquid; Vibrating tube method
Task for the reader: assign each of the following molecules its reported mass density.
Write the answer as a number in kg/m3, unit excluded.

Request: // Input: Cc1ccc(C)s1 [2,5-dimethylthiophene] . Output its mass density only.
Response: 954.21

Request: // Input: c1ccsc1 [thiophene] . Output its mass density only.
Response: 1027.57

Request: // Input: Cc1ccsc1 [3-methylthiophene] . Output its mass density only.
Response: 988.63

Request: // Input: Cc1cccs1 [2-methylthiophene] . Output its mass density only.
Response: 986.87

====

conditions: 318.15 K; 10000 kPa; Liquid; Vibrating tube method
measurement.name: mass density (kg/m3)
Write the answer as a number in kg/m3, unit excluded.

Request: // Input: Cc1ccc(C)s1 . Output its mass density only.
Response: 968.6

Request: // Input: Cc1ccsc1 . Output its mass density only.
Response: 1003.52

Request: // Input: Cc1cccs1 . Output its mass density only.
Response: 1002.05

Request: // Input: c1ccsc1 . Output its mass density only.
Response: 1044.15

====

conditions: 288.15 K; 7000 kPa; Liquid; Vibrating tube method
measurement.name: mass density (kg/m3)
Write the answer as a number in kg/m3, unit excluded.

Request: // Input: Cc1ccc(C)s1 . Output its mass density only.
Response: 995.72

Request: // Input: Cc1ccsc1 . Output its mass density only.
Response: 1031.84

Request: // Input: c1ccsc1 . Output its mass density only.
Response: 1076.12

Request: // Input: Cc1cccs1 . Output its mass density only.
Response: 1030.97

====

conditions: 313.15 K; 25000 kPa; Liquid; Vibrating tube method
measurement.name: mass density (kg/m3)
Write the answer as a number in kg/m3, unit excluded.

Request: // Input: Cc1ccc(C)s1 [2,5-dimethylthiophene] . Output its mass density only.
Response: 985.31

Request: // Input: Cc1ccsc1 [3-methylthiophene] . Output its mass density only.
Response: 1020.43

Request: // Input: c1ccsc1 [thiophene] . Output its mass density only.
Response: 1062.52

Request: // Input: Cc1cccs1 [2-methylthiophene] . Output its mass density only.
Response: 1019.32

====

Task for the reader: assign each of the following compounds its reported mass density.
settings: 338.15 K; 65000 kPa; Liquid; Vibrating tube method
Write the answer as a number in kg/m3, unit excluded.

Request: // Input: c1ccsc1 . Output its mass density only.
Response: 1066.99

Request: // Input: Cc1cccs1 . Output its mass density only.
Response: 1024.7

Request: // Input: Cc1ccc(C)s1 . Output its mass density only.
Response: 991.43

Request: // Input: Cc1ccsc1 . Output its mass density only.
Response: 1025.7

====

details: 293.15 K; 30000 kPa; Liquid; Vibrating tube method
± gives the expanded uncertainty stated by the source.
measurement.name: mass density
Please format your answer as a value with the unit trailing.

Request: // Input: Cc1ccc(C)s1 [2,5-dimethylthiophene] . Output its mass density only.
Response: 1007.07 ± 0.5 kg/m3

Request: // Input: Cc1cccs1 [2-methylthiophene] . Output its mass density only.
Response: 1042.27 ± 0.54 kg/m3

Request: // Input: Cc1ccsc1 [3-methylthiophene] . Output its mass density only.
Response: 1042.92 ± 0.52 kg/m3

Request: // Input: c1ccsc1 [thiophene] . Output its mass density only.
Response: 1087.58 ± 0.52 kg/m3

====

Task for the reader: assign each of the following compounds its reported mass density.
conditions: 283.15 K; 40000 kPa; Liquid; Vibrating tube method
Write the answer as a number in kg/m3, unit excluded.

Request: // Input: Cc1cccs1 [2-methylthiophene] . Output its mass density only.
Response: 1058.12

Request: // Input: c1ccsc1 [thiophene] . Output its mass density only.
Response: 1104.61

Request: // Input: Cc1ccsc1 [3-methylthiophene] . Output its mass density only.
Response: 1058.46

Request: // Input: Cc1ccc(C)s1 [2,5-dimethylthiophene] . Output its mass density only.
Response: 1022.34

====

details: 283.15 K; 25000 kPa; Liquid; Vibrating tube method
± gives the expanded uncertainty stated by the source.
Task for the reader: assign each of the following compounds its reported mass density.
Please format your answer as a value with the unit trailing.

Request: // Input: c1ccsc1 [thiophene] . Output its mass density only.
Response: 1094.82 ± 0.52 kg/m3

Request: // Input: Cc1ccc(C)s1 [2,5-dimethylthiophene] . Output its mass density only.
Response: 1013.04 ± 0.5 kg/m3

Request: // Input: Cc1cccs1 [2-methylthiophene] . Output its mass density only.
Response: 1048.69 ± 0.54 kg/m3

Request: // Input: Cc1ccsc1 [3-methylthiophene] . Output its mass density only.
Response: 1049.2 ± 0.52 kg/m3

====

details: 318.15 K; 45000 kPa; Liquid; Vibrating tube method
± gives the expanded uncertainty stated by the source.
measurement.name: mass density

Request: // Input: Cc1cccs1 [2-methylthiophene] . Output its mass density only.
Response: 1028.94 ± 0.54 kg/m3

Request: // Input: c1ccsc1 [thiophene] . Output its mass density only.
Response: 1072.41 ± 0.53 kg/m3

Request: // Input: Cc1ccc(C)s1 [2,5-dimethylthiophene] . Output its mass density only.
Response: 994.93 ± 0.5 kg/m3

Request: // Input: Cc1ccsc1 [3-methylthiophene] . Output its mass density only.
Response: 1029.86 ± 0.52 kg/m3

====

Task for the reader: assign each of the following compounds its reported mass density.
conditions: 308.15 K; 10000 kPa; Liquid; Vibrating tube method
Write the answer as a number in kg/m3, unit excluded.

Request: // Input: Cc1cccs1 [2-methylthiophene] . Output its mass density only.
Response: 1012.46

Request: // Input: Cc1ccc(C)s1 [2,5-dimethylthiophene] . Output its mass density only.
Response: 978.38

Request: // Input: c1ccsc1 [thiophene] . Output its mass density only.
Response: 1055.61

Request: // Input: Cc1ccsc1 [3-methylthiophene] . Output its mass density only.
Response: 1013.72

====

Task for the reader: assign each of the following compounds its reported mass density.
conditions: 333.15 K; 7000 kPa; Liquid; Vibrating tube method
Write the answer as a number in kg/m3, unit excluded.

Request: // Input: Cc1cccs1 [2-methylthiophene] . Output its mass density only.
Response: 983.47

Request: // Input: Cc1ccc(C)s1 [2,5-dimethylthiophene] . Output its mass density only.
Response: 951.09

Request: // Input: c1ccsc1 [thiophene] . Output its mass density only.
Response: 1023.65

Request: // Input: Cc1ccsc1 [3-methylthiophene] . Output its mass density only.
Response: 985.3

====

conditions: 288.15 K; 50000 kPa; Liquid; Vibrating tube method
Task for the reader: assign each of the following molecules its reported mass density.
Write the answer as a number in kg/m3, unit excluded.

Request: // Input: c1ccsc1 . Output its mass density only.
Response: 1105.72

Request: // Input: Cc1cccs1 . Output its mass density only.
Response: 1059.42

Request: // Input: Cc1ccc(C)s1 . Output its mass density only.
Response: 1023.78

Request: // Input: Cc1ccsc1 . Output its mass density only.
Response: 1059.74

====

Task for the reader: assign each of the following compounds its reported mass density.
conditions: 313.15 K; 2000 kPa; Liquid; Vibrating tube method
Write the answer as a number in kg/m3, unit excluded.

Request: // Input: Cc1cccs1 . Output its mass density only.
Response: 1000.23

Request: // Input: c1ccsc1 . Output its mass density only.
Response: 1042.52

Request: // Input: Cc1ccsc1 . Output its mass density only.
Response: 1001.76

Request: // Input: Cc1ccc(C)s1 . Output its mass density only.
Response: 966.6

====

settings: 333.15 K; 5000 kPa; Liquid; Vibrating tube method
Task for the reader: assign each of the following molecules its reported mass density.
Write the answer as a number in kg/m3, unit excluded.

Request: // Input: Cc1ccsc1 . Output its mass density only.
Response: 983.35

Request: // Input: Cc1cccs1 . Output its mass density only.
Response: 981.49

Request: // Input: Cc1ccc(C)s1 . Output its mass density only.
Response: 949.16

Request: // Input: c1ccsc1 . Output its mass density only.
Response: 1021.56
